- assayProcedure: Toxicity liver stage against HepG2, at 10uM
- Format: cell-based
- Parameters: test concentration 10 uM, cell line HepG2-A16-CD81EGFP
- experimentalContext: human, HepG2-A16-CD81EGFP cells; read-out: INHIBITION

>  <compound>
COc1cccc(CC(=O)NCC(Cc2ccc(F)cc2)C(N)=O)c1 (centres undefined)

>  <cytotoxicity at 10 µM, %>
4.78

$$$$
>  <compound>
O=C(c1cccc(=O)[nH]1)N(Cc1ccsc1)CC1CCCO1 (centres undefined)

>  <cytotoxicity at 10 µM, %>
-11.5

$$$$
>  <compound>
O=C(CCc1nccs1)N1CCCC(n2ccnc2)C1 (centres undefined)

>  <cytotoxicity at 10 µM, %>
-16

$$$$
>  <compound>
c1cc(CCN2CCC(c3n[nH]c(C4CC4)n3)CC2)ccn1

>  <cytotoxicity at 10 µM, %>
3.39

$$$$
>  <compound>
CN(CCC(O)c1ccccc1)Cc1ccccc1C#N (centres undefined)

>  <cytotoxicity at 10 µM, %>
6.87

$$$$
>  <compound>
CC(C)CCC(C)NC(=O)CN1C=Nc2ccccc2S1(=O)=O (centres undefined)

>  <cytotoxicity at 10 µM, %>
-1.64

$$$$
>  <compound>
Cc1noc2ncc(C(=O)N3CCCC3c3cnn(C)c3)cc12 (centres undefined)

>  <cytotoxicity at 10 µM, %>
-6.2

$$$$
>  <compound>
CCc1cc(NC2CCC(O)CC2)n2nc(C)c(C)c2n1 (centres undefined)

>  <cytotoxicity at 10 µM, %>
-6.86

$$$$
>  <compound>
Cc1ccc(C2(CN3CCN(Cc4cncn4C)CC3)CC2)cc1

>  <cytotoxicity at 10 µM, %>
-13.1

$$$$
>  <compound>
COCC(=O)N1CCC2(CC1)CC(N1CCOCC1)c1ccc(C)cc12 (centres undefined)

>  <cytotoxicity at 10 µM, %>
-116

$$$$
>  <compound>
O=C1N[C@@H]2CCN(C(=O)c3ccccc3)[C@@H]2C(=O)N1Cc1ccccc1

>  <cytotoxicity at 10 µM, %>
-1.84

$$$$
>  <compound>
O=S(=O)(NCCN1CCOCC1)c1cncc(Cl)c1

>  <cytotoxicity at 10 µM, %>
2.77

$$$$
>  <compound>
Cc1cccc(CO[C@@H]2CC[C@H]3[C@H]2OCCN3Cc2ccsc2)n1

>  <cytotoxicity at 10 µM, %>
-16.3

$$$$
>  <compound>
CC1CN(C)CCN1C(=O)COc1cccc(Oc2ccccn2)c1 (centres undefined)

>  <cytotoxicity at 10 µM, %>
10.7

$$$$
>  <compound>
Cc1ccc(CC(=O)N2CCN(C(C)c3ccccc3F)CC2)cn1 (centres undefined)

>  <cytotoxicity at 10 µM, %>
-9.75

$$$$
>  <compound>
O=C1CCCN1CCN1CCCCC1Cn1cccn1 (centres undefined)

>  <cytotoxicity at 10 µM, %>
12.9

$$$$
>  <compound>
Cc1cc(-c2cnc(C)nc2CN(C)C(=O)c2ccccn2)on1

>  <cytotoxicity at 10 µM, %>
7.95

$$$$
>  <compound>
CN(CC(=O)Nc1ccccc1C(=O)NC1CC1)Cc1ccccc1Cl

>  <cytotoxicity at 10 µM, %>
-8.18

$$$$
>  <compound>
C=c1ccoc1=C1NN=C(CNCCn2cc(C)cn2)O1

>  <cytotoxicity at 10 µM, %>
1.12

$$$$
>  <compound>
Cc1cc(C)c2c(N(C)CC3COCCO3)ncnc2n1 (centres undefined)

>  <cytotoxicity at 10 µM, %>
-133

$$$$
>  <compound>
CCN(C(=O)CN1CCCC1c1ccc(OC)cc1)c1ccccc1C (centres undefined)

>  <cytotoxicity at 10 µM, %>
0.623

$$$$
>  <compound>
CCn1nc(CC(C)C)cc1C(=O)N1CCCOC(CN2CCCC2)C1 (centres undefined)

>  <cytotoxicity at 10 µM, %>
-7.66

$$$$
>  <compound>
COCCNC(=O)NCCc1ccn(-c2ccccc2)n1

>  <cytotoxicity at 10 µM, %>
-0.0722

$$$$
>  <compound>
COc1ccc(C(NCc2cccc(O)c2)C2CC2)cc1 (centres undefined)

>  <cytotoxicity at 10 µM, %>
4.99

$$$$
